Source: patent US20230151091A1

Biological target: T1, rat MuSK (rat, UniProt Q62838 22-494, limits assumed)
T1 construct: Coated on Biacore chip (200RU) or ELISA plate
T1 sequence (looked up): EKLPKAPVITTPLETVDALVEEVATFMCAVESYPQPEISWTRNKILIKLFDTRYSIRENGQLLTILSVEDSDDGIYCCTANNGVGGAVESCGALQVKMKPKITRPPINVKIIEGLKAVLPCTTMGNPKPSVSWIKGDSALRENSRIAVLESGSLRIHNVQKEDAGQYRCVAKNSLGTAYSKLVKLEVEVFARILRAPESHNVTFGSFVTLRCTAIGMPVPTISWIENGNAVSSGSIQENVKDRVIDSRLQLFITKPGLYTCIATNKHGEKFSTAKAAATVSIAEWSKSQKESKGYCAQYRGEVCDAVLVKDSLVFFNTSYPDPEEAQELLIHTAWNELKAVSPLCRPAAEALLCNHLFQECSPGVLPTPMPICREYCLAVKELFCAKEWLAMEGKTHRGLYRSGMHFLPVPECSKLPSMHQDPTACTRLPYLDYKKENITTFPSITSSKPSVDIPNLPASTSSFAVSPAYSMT
Assay: Biacore, MuSK on chip (200RU), 66.7 nM mAb, dissociation pH 7.4
We begin with a simple list: items and their reported koff.
Just the number please, in s⁻¹, no unit attached.

Some solved entries appear below for comparison.
3B2g2m2 (antibody, human IgG1, V domains shown, human IgG1-LALA backbone; produced in HEK293 cells) VH: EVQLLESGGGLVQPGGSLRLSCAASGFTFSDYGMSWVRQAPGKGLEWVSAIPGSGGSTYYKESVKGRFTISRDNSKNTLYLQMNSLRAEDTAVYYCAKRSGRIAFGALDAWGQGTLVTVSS VL: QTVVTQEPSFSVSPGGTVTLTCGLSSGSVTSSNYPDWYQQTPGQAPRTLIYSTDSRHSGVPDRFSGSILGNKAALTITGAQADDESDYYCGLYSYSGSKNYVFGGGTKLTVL ... 0.00281
3B2g1m2 (antibody, human IgG1, V domains shown, human IgG1-LALA backbone; produced in HEK293 cells) VH: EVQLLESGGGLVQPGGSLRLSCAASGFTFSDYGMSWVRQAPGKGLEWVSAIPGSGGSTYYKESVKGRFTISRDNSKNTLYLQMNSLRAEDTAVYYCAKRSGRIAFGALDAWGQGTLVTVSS VL: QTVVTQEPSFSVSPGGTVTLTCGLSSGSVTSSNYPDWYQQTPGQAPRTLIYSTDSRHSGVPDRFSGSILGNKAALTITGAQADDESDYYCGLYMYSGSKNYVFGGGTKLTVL ... 0.00314

With those in mind, consider the next binder.
Report koff, nothing else, for this binder: 3B2 (antibody, V domains shown, human IgG1 with the LALA mutations (L234A, L235A); produced in HEK293 cells; also called 3B2 mAb; parental 3B2 Ab) VH: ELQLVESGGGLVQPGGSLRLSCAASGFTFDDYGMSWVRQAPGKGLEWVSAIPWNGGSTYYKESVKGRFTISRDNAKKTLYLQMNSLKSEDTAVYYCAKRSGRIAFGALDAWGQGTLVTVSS VL: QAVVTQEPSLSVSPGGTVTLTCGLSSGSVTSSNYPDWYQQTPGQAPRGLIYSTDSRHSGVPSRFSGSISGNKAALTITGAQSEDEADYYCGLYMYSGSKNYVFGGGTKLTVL
0.00186
